system: T1, Macaca fascicularis (cyno) CD40 (cCD40) on cells (Macaca fascicularis (cynomolgus), UniProt P25942 21-277 (human entry))
T1 construct: CD40 on cyno mature DCs
T1 chain: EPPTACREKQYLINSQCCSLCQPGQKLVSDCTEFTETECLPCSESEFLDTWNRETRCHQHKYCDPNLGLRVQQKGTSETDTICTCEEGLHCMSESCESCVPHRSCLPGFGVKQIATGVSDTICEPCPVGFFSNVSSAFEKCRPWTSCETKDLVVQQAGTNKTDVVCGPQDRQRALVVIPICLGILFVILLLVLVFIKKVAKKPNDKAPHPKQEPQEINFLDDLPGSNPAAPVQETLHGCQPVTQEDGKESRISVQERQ
experiment.summary: flow cytometry, cyno mature DCs
reported.endpoint: EC50 (µg/mL)
Give bare numbers, in µg/mL.

C40M9 (antibody, human IgG1, lambda, V domains shown) VH: QLQLQESGPGLVKPSEILSLTCTVSGGSISSSSYYWGWIRQPPGKGLEWIGNIYYRGDTYYSPSLKSRVTISVDTSKNQFSLKLNSVTAADTAVYYCAKGFRFDYWGQGTLVTVSS VL: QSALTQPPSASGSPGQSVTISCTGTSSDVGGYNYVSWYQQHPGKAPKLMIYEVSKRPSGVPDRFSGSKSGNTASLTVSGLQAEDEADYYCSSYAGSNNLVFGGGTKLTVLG; 0.0451

For each listed entry, give its EC50.
1. C40M12 (antibody, human IgG1, lambda, V domains shown, Full-length IgG1/lambda; from OmniRat (OMT)) VH: EVQLVESGGGLVQPGGSLRLSCAASGFTFGSYAMSWVRQAPGKGLEWVSVISDSGGRTYYADSVKGRFTISRDYSKNTLYLQMNSLRAEDTAVYYCAKEGGDYYYYGMDVWGQGTTVTVSS VL: SYELTQPPSVSVSPGQTASIICSGDKLGDKYVCWYQQKPGQSPVVVIYHDNKRPSGIPERFSGSNSGNTATLTISGTQAMDEADYYCQVWDSSTVVFGGGTKLTVLG
2. C40M18 (antibody, human IgG1, lambda, V domains shown, Full-length IgG1/lambda; from OmniRat (OMT); VH C40H48, VL C40L64) VH: EVQLVESGGGLVQPGGSLRLSCAASGFTFSSYAMSWVRQAPGKGLEWVSIINNNVGRTYYADSVKGRFTISRDNSKNTLYLQMNSLRAEDTAVYYCAKEGGDYYYYGMDVWGQGTTVTVSS VL: SYELTQPPSVSVSPGQTASITCSGDKLGDKYVCWYQQKPGQSPVVVIYQDSKRPSGIPERFSGSNSGNTATLTISGTQAMDEAYYYCQAWVSSTVVFGGGTKLTVLG

stdout:
1: 0.0474; 2: 0.0389

stdin: Given the entry C40M67 (antibody, human IgG1, kappa, V domains shown, Full-length IgG1/kappa; from phage display) VH: EVQLLESGGGLVQPGGSLRLSCAASGFTFSDYAMNWVRQAPGKGLEWVSGIKSGGSSKYYADSVKGRFTISRDNSKNTLYLQMNSLRAEDTAVYYCAKHVDFYRALDYWGQGTLVTVSS VL: EIVLTQSPGTLSLSPGERATLSCRASQSVKNSSLAWYQQKPGQAPRLLIYTASSRATGIPDRFSGSGSGTDFTLTISRLEPEDFAVYYCQQSSAPPWTFGQGTKVEIKR , report its measured EC50.
stdout: 0.327
